Test system: Mus musculus
Test: Inhibition of p-benzoquinone-induced writhing in Swiss albino mouse at 25 mg/kg, po relative to control
Type: functional
Quick rule: inhibition in vivo at 25 mg/kg of at least 20% means 1.0, below that means 0.0.

CCS(=O)(=O)c1nc(-c2ccc(Cl)cc2)n[nH]1 ... 1.0
CCS(=O)(=O)c1nc(-c2ccccc2)n[nH]1 ... 1.0
CCSc1nc(-c2ccc(Cl)cc2)n[nH]1 ... 0.0
CCSc1nc(-c2ccccc2Cl)n[nH]1 ... 0.0
CS(=O)(=O)c1nc(-c2ccc(Cl)cc2)n[nH]1 ... 0.0

Q. Decide: is the reported value of inhibition in vivo at 25 mg/kg for CS(=O)(=O)c1nc(-c2ccccc2Cl)n[nH]1 equal to or greater than 20%?
A. 1.0

Q. Please answer likewise for CSc1nnc(-c2ccc(Cl)cc2)[nH]1
A. 0.0

Q. Please answer likewise for CCS(=O)(=O)c1nc(-c2ccccc2Cl)n[nH]1
A. 1.0

---

Test system: Mus musculus
Experiment: Antiinflammatory activity against carrageenan-induced paw edema in Swiss albino mouse assessed as swelling thickness at 100 mg/kg, po after 270 mins
Format: functional
quantity-kind: Activity

Example entries begin here.
CCSc1nc(-c2ccc(Cl)cc2)n[nH]1 ... 40.7 10^-2mm
CCSc1nc(-c2cccc(Br)c2)n[nH]1 ... 55.3 10^-2mm
CCSc1nc(-c2ccccc2)n[nH]1 ... 51.2 10^-2mm
CCS(=O)(=O)c1nc(-c2ccccc2)n[nH]1 ... 39.2 10^-2mm

Q. // lookup Activity for CS(=O)(=O)c1nc(-c2ccccc2)n[nH]1
A. 47.5 10^-2mm

Q. Please answer likewise for COc1ccc2c(c1)c(CC(=O)O)c(C)n2C(=O)c1ccc(Cl)cc1 [INDOMETHACIN]
A. 36.5 10^-2mm

Q. Please answer likewise for CCS(=O)(=O)c1nc(-c2ccc(Br)cc2)n[nH]1
A. 45.7 10^-2mm

Q. Please answer likewise for CSc1nc(-c2ccccc2)n[nH]1
A. 47.6 10^-2mm

Q. Please answer likewise for CS(=O)(=O)c1nc(-c2ccccc2Cl)n[nH]1
A. 41.3 10^-2mm

Q. Please answer likewise for CCS(=O)(=O)c1nc(-c2cccc(Br)c2)n[nH]1
A. 85.6 10^-2mm

---

Test system: Mus musculus
Assay: Antiinflammatory activity against carrageenan-induced paw edema in Swiss albino mouse assessed as swelling thickness at 25 mg/kg, po after 90 mins
Assay type: functional
quantity-kind: Activity

Example entries begin here.
CCS(=O)(=O)c1nc(-c2ccc(Cl)cc2)n[nH]1 ... 45.8 10^-2mm
CCS(=O)(=O)c1nc(-c2ccccc2)n[nH]1 ... 48.6 10^-2mm
CSc1nnc(-c2ccc(Cl)cc2)[nH]1 ... 43.5 10^-2mm
CCS(=O)(=O)c1nc(-c2ccc(Br)cc2)n[nH]1 ... 54.6 10^-2mm
CS(=O)(=O)c1nc(-c2ccc(Cl)cc2)n[nH]1 ... 55.2 10^-2mm
CCSc1nc(-c2ccc(Cl)cc2)n[nH]1 ... 45.9 10^-2mm

Q. State its Activity on Mus musculus: CS(=O)(=O)c1nc(-c2ccccc2Cl)n[nH]1
A. 49.1 10^-2mm

Q. Please answer likewise for CCSc1nc(-c2ccccc2Cl)n[nH]1
A. 49.3 10^-2mm

Q. Please answer likewise for CCS(=O)(=O)c1nc(-c2ccccc2Cl)n[nH]1
A. 47.2 10^-2mm

---

This section presents molecules with their documented Activity values.
Tested on: Mus musculus
Assay: Analgesic activity against p-benzoquinone-induced abdominal constriction in Swiss albino mouse assessed as number of writhings at 200 mg/kg, po
Type: functional, Abdomen
Write the value as a bare number.

CSc1nnc(-c2ccc(Cl)cc2)[nH]1 ... 43.3
CCS(=O)(=O)c1nc(-c2ccccc2)n[nH]1 ... 48.5
CS(=O)(=O)c1nc(-c2ccc(Cl)cc2)n[nH]1 ... 46.8
CC(=O)Oc1ccccc1C(=O)O ... 23.8
CS(=O)(=O)c1nc(-c2ccccc2Cl)n[nH]1 ... 45.3
CCS(=O)(=O)c1nc(-c2ccc(Cl)cc2)n[nH]1 ... 44.1

Q. // lookup Activity for CCS(=O)(=O)c1nc(-c2ccc(Br)cc2)n[nH]1
A. 50.6

Q. Please answer likewise for CCS(=O)(=O)c1nc(-c2ccccc2Cl)n[nH]1
A. 45.9

Q. Please answer likewise for CCSc1nc(-c2ccccc2Cl)n[nH]1
A. 41.3

Q. Please answer likewise for CCSc1nc(-c2ccc(Cl)cc2)n[nH]1
A. 44.8

---

Tested on: Mus musculus
Assay: Inhibition of carrageenan-induced paw edema in Swiss albino mouse at 25 mg/kg, po after 270 mins relative to control
Format: functional
Conditions: 4.5 h
quantity-kind: inhibition in vivo at 25 mg/kg (%)
Just the number in %, nothing appended.

CCSc1nc(-c2ccc(Cl)cc2)n[nH]1 ... 16.9
CCS(=O)(=O)c1nc(-c2ccc(Cl)cc2)n[nH]1 ... 10.6
CSc1nnc(-c2ccc(Cl)cc2)[nH]1 ... 20.5
CCS(=O)(=O)c1nc(-c2ccccc2)n[nH]1 ... 10.3
CCSc1nc(-c2ccccc2Cl)n[nH]1 ... 6.6

Q. // lookup inhibition in vivo at 25 mg/kg for CS(=O)(=O)c1nc(-c2ccccc2Cl)n[nH]1
A. 7.1

Q. Please answer likewise for CCS(=O)(=O)c1nc(-c2ccccc2Cl)n[nH]1
A. 8.8

---

This section presents compounds with their documented Activity values.
System: Mus musculus
Assay: Antiinflammatory activity against carrageenan-induced paw edema in Swiss albino mouse assessed as swelling thickness at 50 mg/kg, po after 90 mins
Format: functional

Example entries begin here.
CCS(=O)(=O)c1nc(-c2ccc(Br)cc2)n[nH]1 ... 40.4 10^-2mm
CCSc1nc(-c2ccccc2Cl)n[nH]1 ... 45.2 10^-2mm

# input for lookup
Q. // lookup Activity for CS(=O)(=O)c1nc(-c2ccccc2Cl)n[nH]1
A. 39.1 10^-2mm

---

Tested on: Mus musculus
Test: Gastric-ulcerogenic effect in Swiss albino mouse assessed as lesions at 50 mg/kg, po
Assay type: functional, organism-based
Parameters: dose 50 mg/kg
Calls of active or inactive are those of the source. No cut-off for these calls is given here.
quantity-kind: Activity

CCS(=O)(=O)c1nc(-c2ccccc2Cl)n[nH]1 ... Active
CCSc1nc(-c2ccccc2Cl)n[nH]1 ... Active
CSc1nnc(-c2ccc(Cl)cc2)[nH]1 ... Active

---

This section presents compounds with their documented inhibition in vivo at 25 mg/kg values.
Test system: Mus musculus
Assay: Inhibition of carrageenan-induced paw edema in Swiss albino mouse at 25 mg/kg, po after 90 mins relative to control
Type: functional
Conditions: 1.5 h
Just the number in %, nothing appended.

CCS(=O)(=O)c1nc(-c2ccccc2)n[nH]1 ... 8.6

Q. // lookup inhibition in vivo at 25 mg/kg for CSc1nnc(-c2ccc(Cl)cc2)[nH]1
A. 18.2

Q. Please answer likewise for CS(=O)(=O)c1nc(-c2ccccc2Cl)n[nH]1
A. 7.7

Q. Please answer likewise for CCSc1nc(-c2ccc(Cl)cc2)n[nH]1
A. 13.7

Q. Please answer likewise for CCS(=O)(=O)c1nc(-c2ccccc2Cl)n[nH]1
A. 11.3

Q. Please answer likewise for CCSc1nc(-c2ccccc2Cl)n[nH]1
A. 7.3

Q. Please answer likewise for CCS(=O)(=O)c1nc(-c2ccc(Cl)cc2)n[nH]1
A. 13.9

---

System: Mus musculus
Experiment: Inhibition of carrageenan-induced paw edema in Swiss albino mouse at 25 mg/kg, po after 360 mins relative to control
Format: functional
Conditions: 6 h
Quick rule: inhibition in vivo at 25 mg/kg of at least 10% means met, below that means not met.

Answered cases to consult:
CCS(=O)(=O)c1nc(-c2ccccc2)n[nH]1 ... met
CS(=O)(=O)c1nc(-c2ccccc2Cl)n[nH]1 ... not met
CCS(=O)(=O)c1nc(-c2ccc(Cl)cc2)n[nH]1 ... met
CCSc1nc(-c2ccc(Cl)cc2)n[nH]1 ... met
CCS(=O)(=O)c1nc(-c2ccccc2Cl)n[nH]1 ... met

Q. Decide: is the reported value of inhibition in vivo at 25 mg/kg for CSc1nnc(-c2ccc(Cl)cc2)[nH]1 equal to or greater than 10%?
A. met

Q. Please answer likewise for CCSc1nc(-c2ccccc2Cl)n[nH]1
A. not met

---

Test system: Mus musculus
Assay: Antiinflammatory activity against carrageenan-induced paw edema in Swiss albino mouse assessed as swelling thickness at 100 mg/kg, po after 270 mins
Type: functional
This section presents compounds with their documented Activity values.

Example entries begin here.
CCSc1nc(-c2ccc(Br)cc2)n[nH]1 ... 78.2 10^-2mm
CS(=O)(=O)c1nc(-c2cccc(Br)c2)n[nH]1 ... 65.8 10^-2mm
CSc1nnc(-c2ccc(Cl)cc2)[nH]1 ... 43 10^-2mm
CS(=O)(=O)c1nc(-c2ccc(Br)cc2)n[nH]1 ... 59.5 10^-2mm
CSc1nc(-c2ccc(Br)cc2)n[nH]1 ... 63.3 10^-2mm
CS(=O)(=O)c1nc(-c2ccc(Cl)cc2)n[nH]1 ... 46.2 10^-2mm
CSc1nc(-c2cccc(Br)c2)n[nH]1 ... 67.7 10^-2mm

# input for lookup
Q. // lookup Activity for CCS(=O)(=O)c1nc(-c2ccc(Cl)cc2)n[nH]1
A. 34.5 10^-2mm
